Assignment: determine reported pIC50 for the given compounds.
target system: KRAS G12S (Homo sapiens (Human), UniProt P01116+P62937, G12S)
Sequence (P01116-2 other isoform, or with tags, fused parts or gaps G12S): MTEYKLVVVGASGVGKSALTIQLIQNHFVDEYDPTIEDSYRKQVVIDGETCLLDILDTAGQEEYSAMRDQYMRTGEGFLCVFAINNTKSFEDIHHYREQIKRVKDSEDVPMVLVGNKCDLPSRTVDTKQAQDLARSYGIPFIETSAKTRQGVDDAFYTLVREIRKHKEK
Sequence (P62937 whole entry): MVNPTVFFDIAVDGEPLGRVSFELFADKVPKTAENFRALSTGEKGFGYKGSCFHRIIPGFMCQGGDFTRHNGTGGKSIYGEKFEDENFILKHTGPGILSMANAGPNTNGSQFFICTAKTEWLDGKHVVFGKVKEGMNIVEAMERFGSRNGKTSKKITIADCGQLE
test: Ras-Raf (BRAF RBD) disruption / FRET / MOA assay, KRAS G12S
Assay type: biochemical
test parameters: Ras-Raf disruption/FRET/MOA assay; class symbols; read-out: KRAS G12S FRET data IC50
pIC50: −log10 of the molar value.

Look over these answered cases.
# compound, pIC50
measured = [
    ("CC#CC(=O)N1CC[C@@H](C(=O)N(C)[C@H](C(=O)N[C@H]2Cc3cc(O)cc(c3)-c3ccc4c(c3)c(c(-c3cncnc3)n4CC)CC(C)(C)COC(=O)[C@@H]3CCCN(N3)C2=O)C(C)C)C1", "5.00 to 6.00"),
    ("C=CC(=O)N1CCN(C(=O)N(C)[C@H](C(=O)N[C@H]2Cc3nc(cs3)-c3ccc4c(c3)c(c(-c3cccnc3[C@H](C)OC)n4CC)CC(C)(C)COC(=O)[C@@H]3CCCN(N3)C2=O)C(C)C)CC12CC2 (atropisomer, axis not shown)", "6.00 to 7.00"),
    ("C=CC(=O)N1CC[C@H](C(=O)N(C)[C@H](C(=O)N[C@H]2CC3=NN=C(S3)c3ccc4c(c3)c(c(-c3cccnc3COC)n4CC)CC(C)(C)COC(=O)[C@@H]3CCCN(N3)C2=O)C(C)C)C1", "< 5.00"),
]

For the next question, use this compound.
Give the measured pIC50 of C=CC(=O)N(C)[C@H]1C[C@@H](N(C)C(=O)N(C)[C@H](C(=O)N[C@H]2Cc3nc(cs3)-c3ccc4c(c3)c(c(-c3cccnc3[C@H](C)OC)n4CC)CC(C)(C)COC(=O)[C@@H]3CCCN(N3)C2=O)C(C)C)C1 (atropisomer, axis not shown) . 6.00 to 7.00
